# credit: ChEMBL document CHEMBL3044552

System: Escherichia coli
Assay: Antibacterial activity against Escherichia coli after 24 hr by disc diffusion method
Assay type: functional
Quick list: diameter of the inhibition zone (DIZ) per entry.
Include the unit after the number when you answer.

Qu. Name the reported diameter of the inhibition zone (DIZ) value associated with the molecule COc1cc(C2C(Cl)C(=O)N2NC(=O)NCC(=O)N2c3ccccc3Sc3ccccc32)ccc1O (centres undefined)
Ans. 10 mm

Qu. Request the reported diameter of the inhibition zone (DIZ) associated with O=C(NCC(=O)N1c2ccccc2Sc2ccccc21)NN1C(=O)C(Cl)C1c1ccc([N+](=O)[O-])cc1 (centres undefined)
Ans. 15 mm

Qu. Consider the molecule shown here: COc1ccc(C2C(Cl)C(=O)N2NC(=O)NCC(=O)N2c3ccccc3Sc3ccccc32)cc1 (centres undefined) What is its recorded diameter of the inhibition zone (DIZ)?
Ans. 8 mm

Qu. Requested read-out: diameter of the inhibition zone (DIZ). Entry: CN(C)c1ccc(C2C(Cl)C(=O)N2NC(=O)NCC(=O)N2c3ccccc3Sc3ccccc32)cc1 (centres undefined)
Ans. 7 mm

Qu. Can you look up the measured diameter of the inhibition zone (DIZ) of O=C(NCC(=O)N1c2ccccc2Sc2ccccc21)NN1C(=O)C(Cl)C1c1cccc(Cl)c1 (centres undefined) for me?
Ans. 5 mm

Qu. I have this molecule here, O=C(NCC(=O)N1c2ccccc2Sc2ccccc21)NN1C(=O)C(Cl)C1c1ccc(Cl)cc1 (centres undefined) , and I need its recorded diameter of the inhibition zone (DIZ).
Ans. 19 mm

Qu. Would you mind telling me what diameter of the inhibition zone (DIZ) value was observed for O=C(NCC(=O)N1c2ccccc2Sc2ccccc21)NN1C(=O)C(Cl)C1c1cccc(F)c1 (centres undefined) ?
Ans. 6 mm

Qu. Which value of diameter of the inhibition zone (DIZ) has been reported for O=C(NCC(=O)N1c2ccccc2Sc2ccccc21)NN1C(=O)C(Cl)C1c1ccc(O)cc1 (centres undefined) in the records?
Ans. 5 mm

Qu. Record request: diameter of the inhibition zone (DIZ) value, item O=C(NCC(=O)N1c2ccccc2Sc2ccccc21)NN1C(=O)C(Cl)C1c1ccccc1Cl (centres undefined)
Ans. 8 mm

====

MIC values by entry
Test system: Aspergillus niger
Experiment: Antifungal activity against Aspergillus niger after 18 hr by serial dilution method
Format: functional
A number alone suffices; assume µg/mL.

{"molecule": "O=C(NCC(=O)N1c2ccccc2Sc2ccccc21)NN1C(=O)C(Cl)C1c1cccc(Cl)c1 (stereo not given)", "unit.symbol": "µg/mL", "MIC": 250}
{"molecule": "Clc1ccccc1C(c1ccccc1)(c1ccccc1)n1ccnc1", "unit.symbol": "µg/mL", "MIC": 125}
{"molecule": "COc1cc(C2C(Cl)C(=O)N2NC(=O)NCC(=O)N2c3ccccc3Sc3ccccc32)ccc1O (stereo not given)", "unit.symbol": "µg/mL", "MIC": 250}
{"molecule": "O=C(NCC(=O)N1c2ccccc2Sc2ccccc21)NN1C(=O)C(Cl)C1c1ccc([N+](=O)[O-])cc1 (stereo not given)", "unit.symbol": "µg/mL", "MIC": 500}
{"molecule": "O=C(NCC(=O)N1c2ccccc2Sc2ccccc21)NN1C(=O)C(Cl)C1c1ccc(O)cc1 (stereo not given)", "unit.symbol": "µg/mL", "MIC": 62.5}

Qu. Find MIC (Aspergillus niger) for the entry CN(C)c1ccc(C2C(Cl)C(=O)N2NC(=O)NCC(=O)N2c3ccccc3Sc3ccccc32)cc1 (stereo not given)
Ans. 125

Qu. Give MIC (Aspergillus niger) of the following molecule: O=C(NCC(=O)N1c2ccccc2Sc2ccccc21)NN1C(=O)C(Cl)C1c1ccccc1Cl (stereo not given)
Ans. 125

Qu. Param readout = MIC; param system = Aspergillus niger; param query = COc1ccc(C2C(Cl)C(=O)N2NC(=O)NCC(=O)N2c3ccccc3Sc3ccccc32)cc1 (stereo not given) ; response: value
Ans. 125

Qu. Form field: MIC recorded for O=C(NCC(=O)N1c2ccccc2Sc2ccccc21)NN1C(=O)C(Cl)C1c1cccc(F)c1 (stereo not given) with Aspergillus niger (enter value)
Ans. 250

Qu. Kindly state the measured MIC obtained for O=C(NCC(=O)N1c2ccccc2Sc2ccccc21)NN1C(=O)C(Cl)C1c1ccc(Cl)cc1 (stereo not given) with Aspergillus niger.
Ans. 125
